# System: Saccharomyces cerevisiae
# Experiment notes: protein stability index of tFT-peptide fusion (C-terminal peptide) (PSI (0-1 scale)); higher = more stable (slower turnover);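 also: PSI is a weighted mean of sequencing reads over stability bins, variants kept only with over 10 reads, mCherry proximal and sfGFP distal, peptide attached via GGGS linker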
# Assay conditions: genetic background: das1 deletion; temperature: 37 C
Result type: protein stability index

> print(dat)
        seq.text              result.type  data.value
 1  QCSVRLKEIQFS  protein stability index        0.72
 2  LCSVWVGIVLLC  protein stability index       0.313
 3  AEVLCEIVIALR  protein stability index       0.583
 4  LIRLCVAPMVCR  protein stability index       0.515
 5  LDLSSLRCRYLL  protein stability index       0.765
 6  RLPYSLTFFLLC  protein stability index       0.576
 7  SWWISKWVGLNC  protein stability index       0.782
 8  VCLVFVVRPCIR  protein stability index       0.606
 9  VWRLCFPFALVR  protein stability index        0.18
10  PPLTRVPLSISA  protein stability index       0.492
11  PHGLKPHCPTPS  protein stability index       0.737
12  NYVFALFYMVVA  protein stability index       0.345
13  TTSHFCVVLVSV  protein stability index       0.382
14  VRGSPNVMWKSQ  protein stability index       0.733
15  FFCLVEVFVGVF  protein stability index       0.177
16  LLASFWKFIVNI  protein stability index         0.7
17  GPPPPPSLLLLC  protein stability index       0.721
18  VLLCFFLGIVGF  protein stability index       0.488

====

Below, each entry is listed with its recorded protein stability index.
# Test system: Saccharomyces cerevisiae
# Experiment notes: protein stability index of tFT-peptide fusion (C-terminal peptide) (PSI (0-1 scale)); higher = more stable (slower turnover)
# Assay conditions: genetic background: wild type; temperature: 30 C
Result type: protein stability index

> print(dat)
        seq.text             target.entity  data.value
 1  YTSPRSTGPSVG  Saccharomyces cerevisiae       0.732
 2  TNLYGWGGERTV  Saccharomyces cerevisiae       0.688
 3  PRLCFPPPPAPA  Saccharomyces cerevisiae       0.688
 4  ERSKTMVAGGEE  Saccharomyces cerevisiae       0.686
 5  SSPPRPLPPHHT  Saccharomyces cerevisiae       0.705
 6  ASSSLLRCFSRF  Saccharomyces cerevisiae       0.648
 7  SIPSIPTLHENT  Saccharomyces cerevisiae       0.676
 8  MRCQFDGAVGVC  Saccharomyces cerevisiae       0.663
 9  EGEGQGWGGQGG  Saccharomyces cerevisiae       0.699
10  PPSTFDPSTLRP  Saccharomyces cerevisiae       0.665
11  LGVIHPSVYFCL  Saccharomyces cerevisiae       0.542
12  GVGSWSCGGSVH  Saccharomyces cerevisiae       0.663

====

# Test system: Saccharomyces cerevisiae
# Experiment notes: protein stability index of tFT-peptide fusion (C-terminal peptide) (PSI (0-1 scale)); higher = more stable (slower turnover)
# Assay conditions: genetic background: wild type; temperature: 30 C
sequences and their reported protein stability index
Result type: protein stability index

> print(dat)
       seq.text  data.value
1  VCFSVSWSGLSC       0.681
2  RIRGPECDLWFR       0.707
3  NGRTSRVMKDRK       0.679
4  DAMSTRSRLLTR       0.711
5  TQGLSSYYRHKI       0.686
6  QSHALSLRKGMP       0.681
7  KKRGNYKTTESN       0.687
8  EKKLKNEEKKEI       0.717
